Tested on: SK-MEL-28 melanoma
experimental protocol: NCI tumour cell line growth inhibition, 48 h
test readout: TGI

COC1(C)C(=O)N2C1N(C(=O)OC(C)(C)C)CC2(C)C (stereo not given) = > 100 µM

// sample `NC(=S)N/N=C1\c2ccccc2-c2c(F)c(F)c(F)c(F)c21` , its TGI was 8.87 µM

So for `COC(=O)c1ncc2c(=O)[nH]c3ccccc3c2c1C(=O)OC` , the logged TGI turned out to be > 100 µM

// TGI value for `COC(=O)c1cc(=O)n(-c2ccc3nn(C)nc3c2)cc1C(=O)OC` : > 100 µM

Consider `CSc1nn(C)cc2ncnc1-2` . Its measured TGI is > 100 µM

In plain terms, `Cc1ccc(NC(=O)CC/C(CC(=O)C(C)(C)C)=N\NC(=O)C[n+]2ccccc2)cc1C` has a documented TGI of > 100 µM

Reported TGI ( CCOC(=O)C1(C/C=C/CCl)CCCC1=O (stereo not given) ) = 50.6 µM

So for `Oc1c(Cl)cc(Cl)cc1/C=N/Nc1nnc(N/N=C/c2cc(Cl)cc(Cl)c2O)c2ccccc12` , the logged TGI turned out to be > 100 µM

TGI reading for `COc1ccc(NC2=C(I)C(=O)c3ncccc3C2=O)cc1` : 3.3 µM

# TGI (compound: C=C1C(=O)O[C@H]2[C@H](OC(C)=O)[C@@H](C)CCCC3(C)OC3CCC3(CO3)[C@H](O)C[C@@H]12 (stereo not given in full) ) is 41.6 µM

----------
Test system: DMS 114 small cell lung
experimental protocol: NCI tumour cell line growth inhibition, 48 h
test readout: TGI (µM)
Form entry: value (µM) — number only.

NS(=O)(=O)c1ccc(NC(=O)Cc2nc3ccccc3s2)cc1 = 29.2
COc1cc(/C=C2\CCC/C(=C\c3ccc(O)c(OC)c3)C2=O)ccc1O = 4.48
O=C(/C=C/c1ccccc1O)c1ccc([N+](=O)[O-])cc1 = 24.7

`CC(=O)Nc1ccc(-c2nnc(SCC(=O)Nc3cccc(Cl)c3)o2)cc1` has a reported TGI of 6.07

// TGI lookup, molecule = `CC[C@@]1(O)C(=O)OCc2c1cc1n(c2=O)Cc2cc3ccccc3nc2-1` , result: 3.27

----------
Test system: MDA-MB-231 breast
experimental protocol: NCI tumour cell line growth inhibition, 48 h
test readout: TGI

Solved entries:
CCN1c2cc(Br)cc3[nH]c(=O)n(c23)CCC1C (configuration not stated) = 43.1 µM
COc1cc(CNCCN2C(=O)c3ccc4c5c(ccc(c35)C2=O)C(=O)N(CCNCc2cc(OC)c(OC)c(OC)c2)C4=O)cc(OC)c1OC = 0.605 µM
N#CC1=C(N)NC(=S)NC12Nc1ccccc1S2 (configuration not stated) = 70.6 µM
CCCCCCCCCCCCCC1=C(O)C(=O)C(CC2=C(O)C(=O)C(CCCCCCCCCCCCC)=C(O)C2=O)=C(O)C1=O = > 100 µM
O=C(CSCC(=O)N/N=C/c1ccccc1)N/N=C\c1ccccc1 = > 100 µM

Per the record, `CN(C)Cc1cc(C(=O)/C=C/c2ccc(Cl)c(Cl)c2)cc(CN(C)C)c1O` has TGI of 14.3 µM

TGI measured on CCOC(=O)C1(C/C=C/CCl)CCCC1=O (configuration not stated) = 42.5 µM

----------
Each item that follows carries a reported TGI.
Tested on: HCC-2998 colon
experimental protocol: NCI tumour cell line growth inhibition, 48 h
Express the result in µM but write the number alone.

Clc1cc(Cl)c2cc3cccc[n+]3cc2c1Cl = 36.6
CCN(CC)CC(C)C(=O)/C=C/c1ccc(C)cc1 (stereo unspecified) = 9.28
COc1ccc2c(c1)-c1c(c3cc(OC)ccc3n1CCCN(C)C)CC2 = 10.2
C=CC(=O)NC(N)=NC#N = 329
COC1=C(C)C(=O)c2c(c(CCCl)c3n2CCC3OC(C)=O)C1=O (stereo unspecified) = 0.582

Then there is this compound:
Value of measured TGI for the entry Cc1[nH]c(=O)[nH]c(=O)c1/C=C/C(=O)NC(CO)CS(=O)CS(C)=O (stereo unspecified) : 53.8

----------
Test system: SF-268 CNS
experimental protocol: NCI tumour cell line growth inhibition, 48 h
# key: entry, value: GI50

GET /value?item= `COCCOC1=CC(=O)c2c(O)ccc(O)c2C1=O` &field=GI50 returns 3.29 µM

According to the records, this compound `COc1cc(-c2nc3sc(C)cn3c2/C=C2\C(=O)Nc3ccccc32)c(Br)c(OC)c1OC` displays GI50 of 44.7 µM

Consider C=C1C(=O)O[C@H]2[C@H](OC(C)=O)[C@@H](C)CCCC3(C)OC3CCC3(CO3)[C@H](O)C[C@@H]12 (stereo partly specified) . Its measured GI50 is 15.2 µM

Recorded result, `O=C(O)c1cc(=O)cc(C(=O)O)o1` , GI50: > 100 µM

Item: `CC(C)(C)CC(C)(C)c1ccc(O)c(Cc2ccc(Cl)cc2Cl)c1` | GI50: 1.6 µM

Entry under test: `CC1(C)N=C(N)N=C(N)N1c1ccc(Cl)cc1` . Its GI50 was 0.688 µM

compound `N#CC(C#N)=C1CCOc2ccc(F)cc21` , GI50 observed: 14.6 µM

Note to self: GI50 recorded for O=C1CC(c2ccccc2)Cc2nc3ccc(Br)cc3cc21 (stereo unspecified) was 4.65 µM

`CC(C)(c1ccccc1)c1cc(O)c(C(C)(C)c2ccccc2)cc1O` has a reported GI50 of 2.99 µM

The reported GI50 of the compound `Clc1cc(Cl)c(OCCCCCCN2CCNCC2)c(Cl)c1` was 5.85 µM

Noted for `NC(=S)N/N=C1\c2ccccc2-c2c(F)c(F)c(F)c(F)c21` : its GI50 reads 5.26 µM

----------
Tested on: UO-31 renal
experimental protocol: NCI tumour cell line growth inhibition, 48 h
test readout: TGI

COc1c(/C=C/C=O)cc2c(c1OC)OCO2 = > 100 µM

Record `O=C(O)c1ccccc1CC1Cc2cc3c(cc2C1)CCC3` , field TGI: > 100 µM

Query `COC(=O)c1cc(=O)n(-c2ccc3nn(C)nc3c2)cc1C(=O)OC` yields TGI of > 100 µM

get_value(item= CNC(=O)C1(C#N)C(c2ccccc2)C(C#N)(C(=O)NC)C1c1ccccc1 (stereo not given) , readout=TGI) returns > 100 µM

The value of TGI measured for the compound C/C(N)=C/C(=O)c1[nH]c(C(=O)O)cc1C1CCN(Cc2ccccc2)C1=O (stereo not given) turned out to be 75.2 µM

// `CN(Cc1cn(O)c2nc(=N)nc(N)c-2n1)c1ccc(C(=O)NC23CC4CC(CC(C4)C2)C3)cc1` : TGI value = > 100 µM

response.value for CC(c1ccc2c(c1)CCC1C2CC2OC23CC=CC(=O)[C@]13C)C1C[C@]2(C)O[C@]2(C)[C@H](O)O1 (stereo not given in full) (field: TGI) = > 100 µM

// `COc1ccc(NC2=C(I)C(=O)c3ncccc3C2=O)cc1` : TGI value = 2.21 µM

response.value for `CC(C)(c1ccccc1)c1cc(O)c(C(C)(C)c2ccccc2)cc1O` (field: TGI) = 11.3 µM

Looking up COc1cc(N2C(=O)[C@H](c3ccccc3)C2c2ccc(SC)cc2)cc(OC)c1OC (stereo not given in full) , I see its TGI listed as > 100 µM

----------
Recorded TGI, one value per entry.
System: OVCAR-5 ovarian
experimental protocol: NCI tumour cell line growth inhibition, 48 h

Below: 5 compounds and their reported TGI.
Cc1ccc(Cc2nn(C)c(=O)n2N)cc1 = > 100 µM
COc1ccc(NC2=C(I)C(=O)c3ncccc3C2=O)cc1 = 3.15 µM
COc1cc(C2OC(N)=C(C#N)C3=C2C(C)CCC3)cc(OC)c1OC (stereo unspecified) = > 100 µM
Cn1cc(-c2nc(-c3c[nH]c4ncccc34)cs2)c2ccccc21 = 73.9 µM
CC(=O)Nc1ccc(-c2nnc(SCC(=O)Nc3cccc(Cl)c3)o2)cc1 = 40.3 µM

TGI for CCOC(=O)CCC(C(=O)OCC)n1nc2ccc(Nc3c(C)[n+]([O-])c4cc(F)c(OCC)cc4[n+]3[O-])cc2n1 (stereo unspecified) is > 100 µM

Just so you know, measured TGI for `C#CC(=O)Nc1cccc2c1cc(C)n2-c1nc2c(c(NCc3ccccc3)n1)CCCC2` came out at 0.977 µM

----------
System: KM20L2 colon
experimental protocol: NCI tumour cell line growth inhibition, 48 h
Reported TGI values for a set of compounds

These recorded examples may help you get a feel for the data.
CSc1nc2nn(Cc3ccccc3)cc2c(=O)[nH]1 = > 100 µM
OCC[N+]12CCCN1CCC2 = > 100 µM
CC1C(=O)CC(c2cccs2)N(N=O)C1c1cccs1 (stereo unspecified) = > 100 µM

Record summary for `CSc1ccc2c(cc1=O)[C@@H](NC(=O)c1ccc(Cl)cc1)CCc1cc(O)c(O)c(O)c1-2` : reported TGI = > 100 µM

The compound identified as COc1ccc(N2C(=O)C3c4[nH]c5ccccc5c4C4CC(C)(C)CC(C)(C)C4C3C2=O)cc1 (stereo unspecified) registered its TGI at > 100 µM

Lab note: measured TGI of COC1(C)C(=O)N2C1N(C(=O)OC(C)(C)C)CC2(C)C (stereo unspecified) was > 100 µM

Per the records, this compound ( COC(=O)C1=C(C)N2CCSC2(C)C(C(=O)OC)C1c1cccc(Cl)c1 (stereo unspecified) ) has TGI equal to 43.4 µM

For record `C=CC(=O)NC(N)=NC#N` the listed TGI is 287 µM

// sample `Cn1c(=O)nc2n(-c3ccc(Cl)cc3)c3cc(Cl)ccc3nc-2c1=O` , its TGI was 35.7 µM

`Cc1ccc(/C=C(\NC(=O)c2ccccc2)c2nc3ccccc3[nH]2)cc1` has a reported TGI of > 100 µM

// TGI value for `O=C(N/C(=C\c1cccc([N+](=O)[O-])c1)c1nc2ccccc2[nH]1)c1ccccc1` : > 100 µM
